assay explanation: NCI Yeast Anticancer Drug Screen. Data for the sgs1 mgt1 strain (AID 161);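 further: 0% = growth of cultures given vehicle only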
condition description: S. cerevisiae sgs1 mgt1 strain, at 50.0 µM, active compounds read high
Procedure: Growth inhibition of yeast strains with defined genetic alterations is measured as a screen for potential anti-cancer activity. Selected strains with alterations in DNA damage repair or cell cycle control were exposed to compounds and growth inhibition was measured relative to vehicle treated controls. The strain used in this assay is sgs1 mgt1
Compounds without any hit were thinned out: in the full panel of roughly 79,000, 15% have a hit.
growth inhibition by entry:
# output: bare number, implied unit %

# example entries with known answers
compound | growth inhibition / %
CCOC(=O)C1C(C=C(C)C)C1(C)C (stereo not drawn) | -8.8
COc1cc(C=C2C(=O)NC(=S)NC2=O)cc(OC)c1OC | 3.35
O=[N+]([O-])c1ccc(SSC(Cl)(Cl)Cl)cc1 | 93.5
O=C(c1ccccc1)C1NC1c1ccccc1 (stereo not drawn) | 1.65
[Cl][Sn]1([Cl])[CH2]CCCCCC[CH2][Sn]([Cl])([Cl])[CH2]CCCCCC[CH2]1 | 24.1

Input: // growth inhibition lookup, key: O=NN1CCCCCC1C(=O)O (stereo not drawn)
Output: -20.9

Input: What does the record list as growth inhibition for C=CCC1(O)CCC2C3CCC4=CC(=O)CCC4=C3C=CC21CC (stereo not drawn) ?
Output: 20.4

Input: What measured growth inhibition goes with CC1OC(=O)C(C(C)C)NC(=O)C(C(C)C)OC(=O)C(C(C)C)NC(=O)C(C)OC(=O)C(C(C)C)NC(=O)C(C(C)C)OC(=O)C(C(C)C)NC(=O)C(C)OC(=O)C(C(C)C)NC(=O)C(C(C)C)OC(=O)C(C(C)C)NC1=O (stereo not drawn) ?
Output: 45.9

Input: # lookup: growth inhibition of C/C=C/C(=O)[O-].C/C=C/C(=O)[O-].N.N.N.N.[Co+3].[O-][Cl+3]([O-])([O-])[O-]
Output: -7.2

Input: Please give the measured growth inhibition for this compound: CC(Cc1ccc2c(c1)OCO2)NCC(O)c1ccc(O)c(O)c1 (stereo not drawn)
Output: 18.2

Input: # growth inhibition lookup, item Cc1cc(C)n(/C(N)=N/[N+](=O)[O-])n1
Output: 3.6
